System: BT-549
Assay: NCI tumour cell line growth inhibition, 48 h
Calls of active or inactive are those of the source. Cut-off read from the data, not from the text of the source: active = GI50 up to about 1.1 µM and inactive = higher. Where a SMILES comes first, the peptide text is derived from it. Square brackets hold non-standard residues; d marks the D form. Peptide text beside a SMILES is read from it. [ ]: non-standard residue; d: D form. The star is where a group is joined. ξ: configuration not given here. ξNMe2Val = CC(C)C(C(=O)*)N(C)C; pGlu = O=C1CC[C@@H](C(=O)O)N1; NMeV = CN[CH](C(=O)O)C(C)C; Thz = O=C(O)[C@@H]1CSCN1; NHBn = c1ccc(CN*)cc1
Thanks in advance; please answer with one of these: active, inactive

Illustrative cases are given below, each with its answer.
[
  {
    "COMPOUND": "CC1=C(C#N)C(=C(C#N)C#N)OC1(C)Cc1ccccc1 (stereo unspecified)",
    "CLASS": "inactive"
  },
  {
    "COMPOUND": "O=C(O)c1cc(C(=O)O)nc(C(=O)O)c1",
    "CLASS": "inactive"
  },
  {
    "COMPOUND": "CCOC(=O)c1ccc2nc(NC(=O)COC(=O)CSc3nc(C)cc(C)n3)sc2c1",
    "CLASS": "inactive"
  },
  {
    "COMPOUND": "COC1C(N)C(OC2C(Oc3cccc4c(O)c5c(=O)oc6ccc(C)c7c(=O)oc(c34)c5c67)OC(C)C(O)C2(C)O)OC(C)C1O (stereo unspecified)",
    "CLASS": "active"
  },
  {
    "COMPOUND": "CC(C)C(NC(=O)C(C(C)C)N(C)C)C(=O)N(C)C(C(=O)N1CCCC1C(=O)N1CCCC1C(=O)NCc1ccccc1)C(C)C (stereo unspecified) (ξNMe2Val-V[NMeV]PP-NHBn; configuration not given here)",
    "CLASS": "active"
  },
  {
    "COMPOUND": "COC(=O)c1ccccc1C1CN=NC12Cc1c(C)ccc(C)c1C2=O (stereo unspecified)",
    "CLASS": "inactive"
  }
]

Problem: Outcome logged for CC1CC/C(=C\c2ccc(N(C)C)cc2)C2=C1C(c1ccc(N(C)C)cc1)NC(=S)N2 (stereo unspecified) in this assay:
Solution: inactive

Problem: Outcome logged for Cc1n[nH]c(C(F)(F)F)c1/N=N/N1CCOCC1 in this assay:
Solution: inactive

Problem: Outcome logged for CC(C)C1OC(/C=C/c2ccccc2)OCC1(C)C (stereo unspecified) in this assay:
Solution: inactive

Problem: Outcome logged for CC(C)C1(NC(=O)C2CC3c4cccc5[nH]cc(c45)CC3N(C)C2)OC2(O)C3CCCN3C(=O)C(Cc3ccccc3)N2C1=O (stereo unspecified) in this assay:
Solution: inactive

Problem: Outcome logged for Cc1ccc(N2C(=O)C(O)=C(C(=O)C(C)(C)C)C2c2ccc([N+](=O)[O-])cc2)cc1 (stereo unspecified) in this assay:
Solution: inactive

Problem: Outcome logged for CC1CC(N)=Nc2ccccc2N1 (stereo unspecified) in this assay:
Solution: inactive

Problem: Outcome logged for Cc1cccc(/C=N/NC(=S)NCCc2ccccn2)n1 in this assay:
Solution: inactive

Problem: Outcome logged for N#Cc1c(N)nc2[nH]nc(N)c2c1-c1ccc(Cl)cc1 in this assay:
Solution: inactive

Problem: Outcome logged for O=C(O)C1CC(c2ccccc2)=NN1c1ccccc1 (stereo unspecified) in this assay:
Solution: inactive

Problem: Outcome logged for O=C(Nc1nnc(-c2c(Cl)c(Cl)c(Cl)c(Cl)c2-c2nc3cc(C(=O)c4ccccc4)ccc3[nH]2)o1)c1ccccc1 in this assay:
Solution: inactive

Problem: Outcome logged for c1ccc(C(=NNc2nc3ccccc3o2)c2ccccn2)nc1 in this assay:
Solution: active

Problem: Outcome logged for Cc1n(Cc2ccccc2)c2c([n+]1C)C(=O)c1ccccc1C2=O in this assay:
Solution: active

Problem: Outcome logged for Cc1c2c(c(C)n1-c1ccccc1)C(=O)N(CCSC(=N)N)C2=O in this assay:
Solution: inactive

Problem: Outcome logged for O=C1CC[C@@H](C(=O)N2CSC[C@H]2C(=O)O)N1 [PIDOTIMOD] ([pGlu]-[Thz]-OH) in this assay:
Solution: inactive

Problem: Outcome logged for CC(CCc1ccccc1)NCC(O)n1c(/N=N/N(C)C)nc2c1c(=O)n(C)c(=O)n2C (stereo unspecified) in this assay:
Solution: inactive
